Tested on: HT29 cells
Assay: In vitro cytotoxicity (Alamar blue growth inhibition), HT29
Format: cell-based, human
Conditions: HT29, 48 h
Listing of recorded log10(GI50) by entry.
Hey, these are logged values: log10 of GI50, µM being the unit before logging.

compound	quantity	measurement
NC1CCCCC1N.O=C1[O][Pt][O]C(=O)C1CCC1OC(CO)C(O)C(O)C1O (centres unmarked)	log10(GI50)	2.35

What the record says about O=C(CCCC1C(=O)[O][Pt]2([NH]C3CCCCC3[NH]2)[O]C1=O)NCC1OC(O)C(O)C(O)C1O (centres unmarked) [(66)] : log10(GI50) is 2.35

What the record says about O=C1[O][Pt]2([NH]C3CCCCC3[NH]2)[O]C(=O)C1CCCC1OC(CO)C(O)C(O)C1O (centres unmarked) : log10(GI50) is 2.07

What the record says about COC1OC(C(=O)NCCC2C(=O)[O][Pt]3([NH]C4CCCCC4[NH]3)[O]C2=O)C(O)C(O)C1O (centres unmarked) : log10(GI50) is 2.01

What the record says about O=C(CCCC1C(=O)[O][Pt]2([NH]C3CCCCC3[NH]2)[O]C1=O)NC1C(O)OC(CO)C(O)C1O (centres unmarked) : log10(GI50) is 2.09

What the record says about O=C1[O][Pt]2([NH][C@@H]3CCCC[C@H]3[NH]2)[O]C1=O [Oxaliplatin, oxaliplatin, reference compound] : log10(GI50) is 2.12

What the record says about N.N.O=C(CCCC1C(=O)[O][Pt][O]C1=O)NC1C(O)OC(CO)C(O)C1O (centres unmarked) : log10(GI50) is 2.90

* * *

Listing of recorded GI50 by entry.
Tested on: HT29 cells
Test: In vitro cytotoxicity (Alamar blue growth inhibition), HT29
Type: cell-based, human
Conditions: HT29, 48 h
The response must be a number in µM with no trailing unit.

What the record says about N.N.O=C([O-])C1(C(=O)[O-])CCC1.[Pt+2] [Carboplatin, reference compound] : GI50 is 515

What the record says about O=C1[O][Pt]2([NH]C3CCCCC3[NH]2)[O]C(=O)C1CCC1OC(CO)C(O)C(O)C1O (stereo not shown) : GI50 is 178

What the record says about O=C(CCCC1C(=O)[O][Pt]2([NH]C3CCCCC3[NH]2)[O]C1=O)NCC1OC(O)C(O)C(O)C1O (stereo not shown) [(54)] : GI50 is 238

What the record says about COC1OC(CNC(=O)CCCC2C(=O)[O][Pt]3([NH]C4CCCCC4[NH]3)[O]C2=O)C(O)C(O)C1O (stereo not shown) : GI50 is 234

What the record says about O=C(CCCC1C(=O)[O][Pt]2([NH]C3CCCCC3[NH]2)[O]C1=O)NC1OC(CO)C(O)C(O)C1O (stereo not shown) : GI50 is 374

What the record says about O=C(CCC1C(=O)[O][Pt]2([NH]C3CCCCC3[NH]2)[O]C1=O)NC1OC(CO)C(O)C(O)C1O (stereo not shown) : GI50 is 860

What the record says about N.N.[Cl][Pt][Cl] [Cisplatin, reference compound] : GI50 is 30

Where do the numbers come from? From patent US20060205677A1.
